Molecular target: MDM2 (Homo sapiens, UniProt Q00987)
Construct: made in house
Sequence (Q00987 25-109): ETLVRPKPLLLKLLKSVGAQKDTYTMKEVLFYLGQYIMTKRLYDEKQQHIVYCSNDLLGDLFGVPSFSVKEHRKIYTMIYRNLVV
Assay: Naive Library Presenter Screening (phage, NGS), MDM2
Assay type: binding
Settings: MDM2 clusters (C82, C85); target concentration 1000 nM, second column
Numbered stars: 1 amine (or outer) side, 2 acyl side, 3 side chain; on linkers, the order of the positions; unused ones are H or OH. Bridge positions count the residues as written; N and C are the ends. Ends that are not written are not given here. Phenylene(1,4-NHCOCH2)2 = O=C(C[*:1])Nc1ccc(NC(=O)C[*:2])cc1
Please note: interaction data at Target Concentration 1000 exactly at 60 is No. Only values below 60 get Yes.

                             sequence_chain                         assay_target  answer_label
0  DPAYSDCFQAAWTCMIH (linker 7-14 via Phenylene(1,4-NHCOCH2)2 (inferred))  MDM2 (Homo sapiens, UniProt Q00987)            No
1  DPAHYECTDAAFECYWF (linker 7-14 via Phenylene(1,4-NHCOCH2)2 (inferred))  MDM2 (Homo sapiens, UniProt Q00987)            No
2  DPALFSCDSAAFSCYWY (linker 7-14 via Phenylene(1,4-NHCOCH2)2 (inferred); not fully specified (C-terminus))  MDM2 (Homo sapiens, UniProt Q00987)           Yes
3  DPAQHHCQQAAFWCQWW (DPAQHHCQQAAFWCQWW-NH2; linker 7-14 via Phenylene(1,4-NHCOCH2)2 (inferred))  MDM2 (Homo sapiens, UniProt Q00987)           Yes
4  DPAAVQCNTAAFQCYWF (linker 7-14 via Phenylene(1,4-NHCOCH2)2 (inferred))  MDM2 (Homo sapiens, UniProt Q00987)            No
5  DPAQQDCFLAAWDCVWQ (DPAQQDCFLAAWDCVWQ-NH2; linker 7-14 via Phenylene(1,4-NHCOCH2)2 (inferred))  MDM2 (Homo sapiens, UniProt Q00987)            No
6  DPAYTQCSDAAFMCWWW (linker 7-14 via Phenylene(1,4-NHCOCH2)2 (inferred))  MDM2 (Homo sapiens, UniProt Q00987)            No
7  DPAYEDCFFAAWNCMMV (linker 7-14 via Phenylene(1,4-NHCOCH2)2 (inferred))  MDM2 (Homo sapiens, UniProt Q00987)           Yes

====

Target: beta-catenin (Homo sapiens)
Construct: made in house; host or cells: E. coli BL21 (DE3) pLysS
Sequence (P35222 134-665): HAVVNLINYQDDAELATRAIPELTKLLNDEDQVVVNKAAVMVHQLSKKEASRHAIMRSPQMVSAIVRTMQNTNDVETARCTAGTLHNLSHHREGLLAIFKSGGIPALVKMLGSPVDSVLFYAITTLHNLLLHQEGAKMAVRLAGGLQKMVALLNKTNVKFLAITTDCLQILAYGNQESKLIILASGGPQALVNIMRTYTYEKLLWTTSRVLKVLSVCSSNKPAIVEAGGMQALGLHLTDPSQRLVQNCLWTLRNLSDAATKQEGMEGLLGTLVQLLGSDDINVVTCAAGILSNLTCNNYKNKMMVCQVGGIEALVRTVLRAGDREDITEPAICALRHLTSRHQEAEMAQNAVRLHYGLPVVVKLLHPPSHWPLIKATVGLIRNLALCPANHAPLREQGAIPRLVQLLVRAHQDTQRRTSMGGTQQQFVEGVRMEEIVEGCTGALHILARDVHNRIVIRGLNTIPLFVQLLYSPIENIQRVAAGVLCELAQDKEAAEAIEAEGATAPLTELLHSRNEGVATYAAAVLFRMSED
Experiment: Phage Library Screening with NGS, beta-catenin
Type: binding
Conditions: beta-catenin target concentration 1000; second 1000 column
Ends that are not written are not given here.
Entry flag: class 1 if Target Concentration 1000 (phage screen NGS readout) reaches 40; class 0 if it does not.

In [3]: df
Out[3]:
                              sequence_chain  answer_label
 0                         DPAILDCQLAAMDCSTW       class 1
 1                         DPAEWDCMHAALICEVH       class 1
 2                         DPAHWSCEWAAEHCRLI       class 1
 3                         DPAEWYCEHAALVCTNH       class 1
 4                         DPADDFCMWAAEHCELL       class 1
 5                         DPAWILCDWAAMHCELV       class 0
 6                         DPAWWQCDHAALICIAE       class 1
 7                         DPAILNCHMAAWDCNFY       class 1
 8                         DPAIIRCYEAAFYCQNY       class 1
 9                         DPAVQDCEWAAIYCELI       class 1
10                         DPARMTCYEAAFRCQYY       class 0
11                         DPAFESCFLAAHICYWE       class 0
12                         DPAILDCHIAAIQCFHD       class 1
13                         DPADTECILAAHFCHYF       class 1
14                         DPATWHCDWAAEHCELL       class 1
15                         DPAQNICEWAALHCDLI       class 1
16                         DPAWSDCIWAAEHCQLI       class 1
17                         DPATIRCYEAAFMCQYW       class 0
18                         DPAEWQCEHAALLCEQQ       class 1
19                         DPAIMACYEAAYLCDYI       class 1
20                         DPAQQDCTLAAHVCRVF       class 0
21                         DPAEVECMLAAHVCRAF       class 1
22                         DPAEFYCEMAAVHCELL       class 1
23                         DPAADDCVLAAHVCAYF       class 1
24                         DPAMIQCQWAAEHCELI       class 1
25                         DPAMSQCNWAAVHCQLL       class 0
26                         DPAELACEWAAIHCELV       class 1
27                         DPAEWICEHAALLCSVL       class 0
28                         DPADNECILAAHICTLA       class 0
29                         DPAVIQCYQAAFHCDYQ       class 0
30                         DPAWQNCTWAAFHCELL       class 1
31                         DPAEAICILAAHECWWD       class 1
32                         DPAIIHCYQAAFQCQYM       class 0
33                         DPARHECILAAHICEWE       class 1
34                         DPAVLECHIAAWECRMD       class 1
35                         DPAFLTCHIAAWACSEQ       class 0
36                         DPAHLMCHYAAWDCRDE       class 0
37                         DPAEADCMMAAHICSNI       class 0
38                         DPAFLDCHIAAWTCNEF       class 0
39                         DPAVEDCVLAAHVCAWF       class 1
40                         DPAVLQCYEAAFICEYM       class 0
41                         DPAILTCYEAAFTCQYQ       class 1
42                         DPAENTCSWAAEHCALV       class 0
43                         DPAIFNCTMAALECTQI       class 0
44                         DPADYDCILAAHICTNI       class 1
45                         DPAQFYCEHAALLCRWE       class 0
46                         DPAILDCQLAAIDCVYT       class 1
47                         DPASWDCDHAALLCTLD       class 1
48                         DPAIMACYQAAFWCQYN       class 0
49                         DPAVIACYDAAFVCEYF       class 0
50                         DPAVMACYEAAFQCAYW       class 0
51                         DPANVECEWAAIHCSLV       class 1
52                         DPAHWVCEHAALNCDQN       class 1
53                         DPAMVTCYEAAYVCQYF       class 0
54                         DPAVLDCHIAALDCHAH       class 0
55                         DPAILECHVAALDCQMW       class 1
56                         DPAILQCYEAAFSCHYQ       class 1
57                         DPAVLECHIAAWECNHT       class 1
58  DPADYECVIAAQVCQHF (not fully specified; cysteine pairing not given here)       class 0
59                         DPAILNCHVAAWNCHSF       class 0
60                         DPASWRCEHAALNCQID       class 1
61                         DPAVHRCFWAAEHCDLI       class 1
62                         DPAAQRCTWAAIHCELI       class 1
63                         DPAEWACEHAALTCWDQ       class 1
64                         DPAILDCSIAAIDCAYS       class 0
65                         DPAEAECILAAHICNIS       class 1
66                         DPAHWRCEHAALLCWYN       class 1
67                         DPADEDCILAAHVCRHF       class 0
68                         DPAEVDCIMAAHICVWD       class 1
69                         DPAEIICYEAAFLCQYQ       class 0
70                         DPAQSDCDWAAEHCNLI       class 1
71                         DPAVFMCYEAAFECQYF       class 0
